Parameter: hERG current change (%, negative = inhibition) at 10uM. Scope: all listed entries.
# assayedTarget: human ether-à-go-go-related gene (hERG) potassium channel (human, UniProt Q12809);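 also: peak tail current of the secondary pulse compared with the same well before compound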
# Sequence (Q12809 whole entry, looked up): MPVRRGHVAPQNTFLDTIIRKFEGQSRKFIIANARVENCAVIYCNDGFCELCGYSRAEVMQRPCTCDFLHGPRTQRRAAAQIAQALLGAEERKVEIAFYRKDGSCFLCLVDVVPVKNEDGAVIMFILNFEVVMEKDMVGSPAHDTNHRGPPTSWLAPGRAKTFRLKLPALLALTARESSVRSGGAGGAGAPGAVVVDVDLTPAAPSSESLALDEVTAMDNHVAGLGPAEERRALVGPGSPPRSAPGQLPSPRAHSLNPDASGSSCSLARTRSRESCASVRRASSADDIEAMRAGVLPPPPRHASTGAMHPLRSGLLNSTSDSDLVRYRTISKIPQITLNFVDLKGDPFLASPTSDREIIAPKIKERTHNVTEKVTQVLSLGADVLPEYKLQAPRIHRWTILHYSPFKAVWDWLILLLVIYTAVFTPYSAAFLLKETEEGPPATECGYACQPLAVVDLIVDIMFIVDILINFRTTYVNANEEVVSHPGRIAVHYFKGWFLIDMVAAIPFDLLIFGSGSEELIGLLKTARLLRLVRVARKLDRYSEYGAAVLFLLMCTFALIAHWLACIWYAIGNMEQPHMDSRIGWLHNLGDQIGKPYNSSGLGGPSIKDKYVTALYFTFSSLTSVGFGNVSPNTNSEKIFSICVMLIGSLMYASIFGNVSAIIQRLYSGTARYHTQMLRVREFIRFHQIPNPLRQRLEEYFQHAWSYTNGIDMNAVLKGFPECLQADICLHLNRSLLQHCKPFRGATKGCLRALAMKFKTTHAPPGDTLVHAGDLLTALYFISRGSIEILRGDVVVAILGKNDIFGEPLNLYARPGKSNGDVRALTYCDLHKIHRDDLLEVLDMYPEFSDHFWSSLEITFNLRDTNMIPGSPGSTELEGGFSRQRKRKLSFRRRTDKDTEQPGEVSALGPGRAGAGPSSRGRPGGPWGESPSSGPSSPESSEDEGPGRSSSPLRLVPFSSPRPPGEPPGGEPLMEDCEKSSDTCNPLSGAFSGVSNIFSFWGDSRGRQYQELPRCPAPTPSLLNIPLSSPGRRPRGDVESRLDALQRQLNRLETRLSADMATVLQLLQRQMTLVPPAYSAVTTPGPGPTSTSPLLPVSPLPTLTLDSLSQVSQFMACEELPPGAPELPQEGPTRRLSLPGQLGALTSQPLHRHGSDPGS
# test: primary screen, population patch clamp on CHO cells stably expressing hERG; higher = less effect of the substance
About 14,000 (4.5%) of roughly 310,000 compounds showed an effect of 50% or more. The effect is printed as a negative number. Many of the other results were omitted from the sample, so strong results are more common in it than they were.
Expressed in %, but write only the number.

Below: 4 compounds and their reported hERG current change (%, negative = inhibition) at 10uM.
> print(dat)
                                 testsmiles  recordedvalue
1  Cc1cc(-c2ccc(C)c(S(=O)(=O)NCC3CCN(Cc4ccccc4F)CC3)c2)on1          -52.8
2  Cc1cc(-c2ccc(C)c(S(=O)(=O)NCCCN(Cc3ccccc3)C(C)C)c2)on1          -36.9
3  COc1ccccc1CN1CCC(CNS(=O)(=O)c2cc(-c3cc(C)no3)ccc2C)CC1          -61.3
4  Cc1cc(-c2ccc(C)c(S(=O)(=O)NCCCN3CCN(c4ccccc4F)CC3)c2)on1           10.3

# context switch: different compound, same hERG current change (%, negative = inhibition) at 10uM
Query string: If you can, please state the reported hERG current change (%, negative = inhibition) at 10uM value of "CCOc1ccccc1CNS(=O)(=O)c1cc(-c2cc(C)no2)ccc1C" .
Result string: -19
